Each recorded value in this set is attributed to patent US10465230B2.

Molecular target: thrombin (Homo sapiens)
Construct: allowing factor Xa to convert prothrombin to thrombin
Assay: Chemiluminescent substrate cleavage by purified thrombin (luciferase/ATP luminescence)
Assay type: biochemical
Settings: ratio of signal with 30 nM thrombin to signal with 40 nM plasmin
Where a name gives a salt, the structure may show the parent alone.
readout name: RLU thrombin/RLU plasmin

>  <compound>
N=C(N)NCCC[C@H](NC(=O)CNC(=O)CNC(=O)OCc1ccccc1)C(=O)Nc1ccc2nc(C3=N[C@@H](C(=O)O)CS3)sc2c1.O=C(O)C(F)(F)F [Cbz-Gly-Gly-Arg-aminoluciferine•TFA]

>  <readout name>
RLU thrombin/RLU plasmin

>  <numeric readout>
5.3

$$$$
>  <compound>
COCCOCCOCC(=O)NCCC(=O)NCC(=O)N[C@@H](CCCNC(=N)N)C(=O)Nc1ccc2nc(C3=N[C@@H](C(=O)O)CS3)sc2c1 [TFA salt]

>  <readout name>
RLU thrombin/RLU plasmin

>  <numeric readout>
3.2

$$$$
>  <compound>
COCCOCCOCCOCCOCC(=O)NC(Cc1ccccc1)C(=O)NC(CCCNC(=N)N)C(=O)Nc1ccc2nc(C3=NC(C(=O)O)CS3)sc2c1.O=C(O)C(F)(F)F (centres unmarked)

>  <readout name>
RLU thrombin/RLU plasmin

>  <numeric readout>
0.27

$$$$
>  <compound>
COCCOCCOCC(=O)NC(Cc1ccccc1)C(=O)NC(CCCNC(=N)N)C(=O)Nc1ccc2nc(C3=NC(C(=O)O)CS3)sc2c1.O=C(O)C(F)(F)F (centres unmarked)

>  <readout name>
RLU thrombin/RLU plasmin

>  <numeric readout>
0.40

$$$$
>  <compound>
COCC(=O)NCCC(=O)NCC(=O)N[C@@H](CCCNC(=N)N)C(=O)Nc1ccc2nc(C3=N[C@@H](C(=O)O)CS3)sc2c1.O=C(O)C(F)(F)F

>  <readout name>
RLU thrombin/RLU plasmin

>  <numeric readout>
3.1

$$$$
>  <compound>
NCCCC[C@H](NC(=O)[C@H](Cc1ccccc1)NC(=O)[C@@H]1CCC(=O)N1)C(=O)Nc1ccc2nc(C3=N[C@@H](C(=O)O)CS3)sc2c1 [PyroGlu-Phe-Lys-aminoluciferine•TFA, pyroGlu-Phe-Lys-aminoluciferin TFA salt]

>  <readout name>
RLU thrombin/RLU plasmin

>  <numeric readout>
0.07

$$$$

1. N=C(N)NCCC[C@H](NC(=O)CNC(=O)CCN)C(=O)Nc1ccc2nc(C3=N[C@@H](C(=O)O)CS3)sc2c1.O=C(O)C(F)(F)F.O=C(O)C(F)(F)F [H-beta-Ala-Gly-Arg-aminoluciferine•2TFA]
2. COCCOCCOCCOCCOCC(=O)NCCC(=O)NCC(=O)N[C@@H](CCCNC(=N)N)C(=O)Nc1ccc2nc(C3=N[C@@H](C(=O)O)CS3)sc2c1.O=C(O)C(F)(F)F
stdin: For the two items 1 and 2 , which reports the higher RLU thrombin/RLU plasmin value? Which one? Tell me its label.
stdout: 1
(1: 4.7, 2: 2.2)

* * *

Target: plasmin (Homo sapiens)
Sequence (P00747 581-810 limits assumed, species assumed): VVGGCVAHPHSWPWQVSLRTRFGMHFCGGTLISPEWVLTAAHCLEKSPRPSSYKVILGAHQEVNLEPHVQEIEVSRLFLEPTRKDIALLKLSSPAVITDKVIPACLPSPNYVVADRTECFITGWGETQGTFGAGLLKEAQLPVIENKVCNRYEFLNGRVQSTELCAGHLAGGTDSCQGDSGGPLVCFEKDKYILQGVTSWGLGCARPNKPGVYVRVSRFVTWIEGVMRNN
Sequence (P00747 97-580 partner limits assumed, species assumed): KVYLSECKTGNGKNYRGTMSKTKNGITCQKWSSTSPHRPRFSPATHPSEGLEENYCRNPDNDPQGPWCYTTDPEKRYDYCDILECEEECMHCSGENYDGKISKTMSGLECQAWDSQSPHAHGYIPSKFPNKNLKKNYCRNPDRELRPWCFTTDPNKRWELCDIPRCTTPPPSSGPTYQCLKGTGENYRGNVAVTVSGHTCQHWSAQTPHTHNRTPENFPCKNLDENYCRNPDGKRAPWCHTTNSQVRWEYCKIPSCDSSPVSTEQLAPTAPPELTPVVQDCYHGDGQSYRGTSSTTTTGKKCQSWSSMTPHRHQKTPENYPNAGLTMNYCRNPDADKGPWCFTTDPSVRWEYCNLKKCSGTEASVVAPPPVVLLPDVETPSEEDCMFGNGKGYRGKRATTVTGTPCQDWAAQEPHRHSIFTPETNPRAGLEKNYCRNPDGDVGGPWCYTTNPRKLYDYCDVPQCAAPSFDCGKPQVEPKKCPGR
Assay: Chemiluminescent substrate cleavage by purified plasmin (luciferase/ATP luminescence)
Type: biochemical
Settings: 40 nM plasmin final, instead of plasma; assay as example 1
Counter-ions that a name gives are not always drawn.
readout name: RLU plasmin (RLU)

I. COCC(=O)NCCC(=O)NCC(=O)N[C@@H](CCCNC(=N)N)C(=O)Nc1ccc2nc(C3=N[C@@H](C(=O)O)CS3)sc2c1.O=C(O)C(F)(F)F
II. COCCOCCOCCOCCOCC(=O)NCCC(=O)NCC(=O)N[C@@H](CCCNC(=N)N)C(=O)Nc1ccc2nc(C3=N[C@@H](C(=O)O)CS3)sc2c1.O=C(O)C(F)(F)F
stdin: // compare: I vs II , metric RLU plasmin, want the smaller Mark your answer with the label of the selected entry.
stdout: II

1. N=C(N)NCCC[C@H](NC(=O)CNC(=O)CCN)C(=O)Nc1ccc2nc(C3=N[C@@H](C(=O)O)CS3)sc2c1.O=C(O)C(F)(F)F.O=C(O)C(F)(F)F [H-beta-Ala-Gly-Arg-aminoluciferine•2TFA]
2. N=C(N)NCCC[C@H](NC(=O)CNC(=O)CNC(=O)OCc1ccccc1)C(=O)Nc1ccc2nc(C3=N[C@@H](C(=O)O)CS3)sc2c1.O=C(O)C(F)(F)F [Cbz-Gly-Gly-Arg-aminoluciferine•TFA]
3. COCCOCCOCCOCCOCC(=O)NC(Cc1ccccc1)C(=O)NC(CCCNC(=N)N)C(=O)Nc1ccc2nc(C3=NC(C(=O)O)CS3)sc2c1.O=C(O)C(F)(F)F (centres unmarked)
4. COCCOCCOCC(=O)NC(Cc1ccccc1)C(=O)NC(CCCNC(=N)N)C(=O)Nc1ccc2nc(C3=NC(C(=O)O)CS3)sc2c1.O=C(O)C(F)(F)F (centres unmarked)
stdin: List items by RLU plasmin in falling order. Please list the labels according to the requested order.
stdout: 3, 4, 2, 1

a. NCCCC[C@H](NC(=O)[C@H](Cc1ccccc1)NC(=O)[C@@H]1CCC(=O)N1)C(=O)Nc1ccc2nc(C3=N[C@@H](C(=O)O)CS3)sc2c1 [PyroGlu-Phe-Lys-aminoluciferine•TFA, pyroGlu-Phe-Lys-aminoluciferin TFA salt]
b. COCCOCCOCC(=O)NCCC(=O)NCC(=O)N[C@@H](CCCNC(=N)N)C(=O)Nc1ccc2nc(C3=N[C@@H](C(=O)O)CS3)sc2c1 [TFA salt]
stdin: I'm curious whether a or b has the smaller RLU plasmin number. Which is it? # reply format: chosen label
stdout: b
(b: 251299 RLU, a: 1999875 RLU)
